Hey, just so you know, these numbers are from BigSolDB 2.1.

- MEASUREMENT_SETUP: in THF, 323.15 K
OBSERVATION_TYPE: solubility (mole fraction)

So what does the record say about solubility (mole fraction) for `CCOC(=O)[C@@H](N)Cc1ccccc1.Cl` ? 0.00491

* * *

- MEASUREMENT_SETUP: in n-butanol, 323.15 K
OBSERVATION_TYPE: solubility (mole fraction)
// no unit string in output, number only

So what does the record say about solubility (mole fraction) for `CCOC(=O)[C@@H](N)Cc1ccccc1.Cl` ? 0.0696

* * *

- MEASUREMENT_SETUP: in n-propanol, 298.15 K
OBSERVATION_TYPE: solubility (mole fraction)
// no unit string in output, number only

So what does the record say about solubility (mole fraction) for `CCOC(=O)[C@@H](N)Cc1ccccc1.Cl` ? 0.0423

* * *

- MEASUREMENT_SETUP: in 2-butoxyethanol, 308.15 K
OBSERVATION_TYPE: solubility (mole fraction)
// no unit string in output, number only

So what does the record say about solubility (mole fraction) for `CCOC(=O)[C@@H](N)Cc1ccccc1.Cl` ? 0.0575

* * *

- MEASUREMENT_SETUP: in THF, 308.15 K
OBSERVATION_TYPE: solubility (mole fraction)
// no unit string in output, number only

So what does the record say about solubility (mole fraction) for `CCOC(=O)[C@@H](N)Cc1ccccc1.Cl` ? 0.00257

* * *

- MEASUREMENT_SETUP: in 2-propoxyethanol, 288.15 K
OBSERVATION_TYPE: solubility (mole fraction)
// no unit string in output, number only

So what does the record say about solubility (mole fraction) for `CCOC(=O)[C@@H](N)Cc1ccccc1.Cl` ? 0.0472

* * *

- MEASUREMENT_SETUP: in 1,4-dioxane, 298.15 K
OBSERVATION_TYPE: solubility (mole fraction)

So what does the record say about solubility (mole fraction) for `CCOC(=O)[C@@H](N)Cc1ccccc1.Cl` ? 0.0037

* * *

- MEASUREMENT_SETUP: in n-butanol, 293.15 K
OBSERVATION_TYPE: solubility (mole fraction)

So what does the record say about solubility (mole fraction) for `CCOC(=O)[C@@H](N)Cc1ccccc1.Cl` ? 0.0262

* * *

- MEASUREMENT_SETUP: in n-butanol, 283.15 K
OBSERVATION_TYPE: solubility (mole fraction)
// no unit string in output, number only

So what does the record say about solubility (mole fraction) for `CCOC(=O)[C@@H](N)Cc1ccccc1.Cl` ? 0.0176

* * *

- MEASUREMENT_SETUP: in n-propanol, 288.15 K
OBSERVATION_TYPE: solubility (mole fraction)
// no unit string in output, number only

So what does the record say about solubility (mole fraction) for `CCOC(=O)[C@@H](N)Cc1ccccc1.Cl` ? 0.0316

* * *

- MEASUREMENT_SETUP: in 2-propoxyethanol, 313.15 K
OBSERVATION_TYPE: solubility (mole fraction)

So what does the record say about solubility (mole fraction) for `CCOC(=O)[C@@H](N)Cc1ccccc1.Cl` ? 0.0738

* * *

- MEASUREMENT_SETUP: in n-propanol, 323.15 K
OBSERVATION_TYPE: solubility (mole fraction)
// no unit string in output, number only

So what does the record say about solubility (mole fraction) for `CCOC(=O)[C@@H](N)Cc1ccccc1.Cl` ? 0.0838

* * *

- MEASUREMENT_SETUP: in isopropanol, 303.15 K
OBSERVATION_TYPE: solubility (mole fraction)
// no unit string in output, number only

So what does the record say about solubility (mole fraction) for `CCOC(=O)[C@@H](N)Cc1ccccc1.Cl` ? 0.0189

* * *

- MEASUREMENT_SETUP: in THF, 283.15 K
OBSERVATION_TYPE: solubility (mole fraction)

So what does the record say about solubility (mole fraction) for `CCOC(=O)[C@@H](N)Cc1ccccc1.Cl` ? 0.00079

* * *

- MEASUREMENT_SETUP: in n-butanol, 288.15 K
OBSERVATION_TYPE: solubility (mole fraction)
// no unit string in output, number only

So what does the record say about solubility (mole fraction) for `CCOC(=O)[C@@H](N)Cc1ccccc1.Cl` ? 0.0218

* * *

- MEASUREMENT_SETUP: in 1,4-dioxane, 293.15 K
OBSERVATION_TYPE: solubility (mole fraction)
// no unit string in output, number only

So what does the record say about solubility (mole fraction) for `CCOC(=O)[C@@H](N)Cc1ccccc1.Cl` ? 0.00301

* * *

- MEASUREMENT_SETUP: in isopropanol, 323.15 K
OBSERVATION_TYPE: solubility (mole fraction)
// no unit string in output, number only

So what does the record say about solubility (mole fraction) for `CCOC(=O)[C@@H](N)Cc1ccccc1.Cl` ? 0.0413

* * *

- MEASUREMENT_SETUP: in isopropanol, 318.15 K
OBSERVATION_TYPE: solubility (mole fraction)
// no unit string in output, number only

So what does the record say about solubility (mole fraction) for `CCOC(=O)[C@@H](N)Cc1ccccc1.Cl` ? 0.0337

* * *

- MEASUREMENT_SETUP: in isopropanol, 308.15 K
OBSERVATION_TYPE: solubility (mole fraction)

So what does the record say about solubility (mole fraction) for `CCOC(=O)[C@@H](N)Cc1ccccc1.Cl` ? 0.0227

* * *

- MEASUREMENT_SETUP: in isopropanol, 288.15 K
OBSERVATION_TYPE: solubility (mole fraction)

So what does the record say about solubility (mole fraction) for `CCOC(=O)[C@@H](N)Cc1ccccc1.Cl` ? 0.00934

* * *

- MEASUREMENT_SETUP: in 2-butoxyethanol, 318.15 K
OBSERVATION_TYPE: solubility (mole fraction)
// no unit string in output, number only

So what does the record say about solubility (mole fraction) for `CCOC(=O)[C@@H](N)Cc1ccccc1.Cl` ? 0.0695

* * *

- MEASUREMENT_SETUP: in 1,4-dioxane, 323.15 K
OBSERVATION_TYPE: solubility (mole fraction)
// no unit string in output, number only

So what does the record say about solubility (mole fraction) for `CCOC(=O)[C@@H](N)Cc1ccccc1.Cl` ? 0.0148

* * *

- MEASUREMENT_SETUP: in 2-propoxyethanol, 283.15 K
OBSERVATION_TYPE: solubility (mole fraction)
// no unit string in output, number only

So what does the record say about solubility (mole fraction) for `CCOC(=O)[C@@H](N)Cc1ccccc1.Cl` ? 0.042

* * *

- MEASUREMENT_SETUP: in n-propanol, 293.15 K
OBSERVATION_TYPE: solubility (mole fraction)
// no unit string in output, number only

So what does the record say about solubility (mole fraction) for `CCOC(=O)[C@@H](N)Cc1ccccc1.Cl` ? 0.0367

* * *

- MEASUREMENT_SETUP: in THF, 318.15 K
OBSERVATION_TYPE: solubility (mole fraction)
// no unit string in output, number only

So what does the record say about solubility (mole fraction) for `CCOC(=O)[C@@H](N)Cc1ccccc1.Cl` ? 0.00398

* * *

- MEASUREMENT_SETUP: in 2-propoxyethanol, 323.15 K
OBSERVATION_TYPE: solubility (mole fraction)
// no unit string in output, number only

So what does the record say about solubility (mole fraction) for `CCOC(=O)[C@@H](N)Cc1ccccc1.Cl` ? 0.087

* * *

- MEASUREMENT_SETUP: in n-butanol, 298.15 K
OBSERVATION_TYPE: solubility (mole fraction)
// no unit string in output, number only

So what does the record say about solubility (mole fraction) for `CCOC(=O)[C@@H](N)Cc1ccccc1.Cl` ? 0.032

* * *

- MEASUREMENT_SETUP: in n-propanol, 308.15 K
OBSERVATION_TYPE: solubility (mole fraction)

So what does the record say about solubility (mole fraction) for `CCOC(=O)[C@@H](N)Cc1ccccc1.Cl` ? 0.0566

* * *

- MEASUREMENT_SETUP: in isopropanol, 313.15 K
OBSERVATION_TYPE: solubility (mole fraction)

So what does the record say about solubility (mole fraction) for `CCOC(=O)[C@@H](N)Cc1ccccc1.Cl` ? 0.0278

* * *

- MEASUREMENT_SETUP: in THF, 298.15 K
OBSERVATION_TYPE: solubility (mole fraction)
// no unit string in output, number only

So what does the record say about solubility (mole fraction) for `CCOC(=O)[C@@H](N)Cc1ccccc1.Cl` ? 0.0016

* * *

- MEASUREMENT_SETUP: in n-propanol, 313.15 K
OBSERVATION_TYPE: solubility (mole fraction)

So what does the record say about solubility (mole fraction) for `CCOC(=O)[C@@H](N)Cc1ccccc1.Cl` ? 0.0656
